System: Trichoderma viride
Test: Antimicrobial activity against Trichoderma viride MTCC 167 at 250 ug/ml after 48 hrs by agar diffusion method
Type: functional
Conditions: MTCC 167, 48 h, read-out: IZ
parameter_measured: zone of inhibition at 250 µg/mL (mm)
Report the figure in mm without appending any unit label.

Field: example entries. Status: answers known.
smiles_str: COc1ccc(C(=O)/C=C/c2cn(-c3ccccc3)nc2-c2ccc(Cl)cc2Cl)c(OC)c1
meas_value: 10
//
smiles_str: COc1ccc(C(=O)/C=C/c2cn(-c3ccccc3)nc2-c2ccc(OC)cc2OC)c(OC)c1
meas_value: 14
//
smiles_str: COc1ccc(-c2nn(-c3ccccc3)cc2/C=C/C(=O)c2ccc(OC)cc2OC)cc1
meas_value: 16
//
smiles_str: COc1ccc(C(=O)/C=C/c2cn(-c3ccccc3)nc2-c2ccc(C)cc2)c(OC)c1
meas_value: 15
//
smiles_str: COc1ccc(C(=O)/C=C/c2cn(-c3ccccc3)nc2-c2ccc(F)cc2)c(OC)c1
meas_value: 14
//
smiles_str: COc1ccc(C(=O)/C=C/c2cn(-c3ccccc3)nc2-c2ccccc2Cl)c(OC)c1
meas_value: 12
//
smiles_str: COc1ccc(C(=O)/C=C/c2cn(-c3ccccc3)nc2-c2cccc(Cl)c2)c(OC)c1
meas_value: 11
//
smiles_str: COc1ccc(C(=O)/C=C/c2cn(-c3ccccc3)nc2-c2ccc(Cl)cc2)c(OC)c1
meas_value: 13
//
smiles_str: COc1ccc(C(=O)/C=C/c2cn(-c3ccccc3)nc2-c2ccc(Br)cc2)c(OC)c1
meas_value: 13

Then there is this compound:
The reported value for COc1ccc(C(=O)/C=C/c2cn(-c3ccccc3)nc2-c2ccccc2)c(OC)c1 in terms of zone of inhibition at 250 µg/mL is 14

###

Test system: THP-1
Experiment: Cytotoxicity against human THP1 cells assessed as CCK8 […] at 10 uM after 24 hrs […]
Type: cell-based
Settings: thp-1, 24 h
Reported Activity is given for each of the following molecules.
Report the figure in % without appending any unit label.

smiles_str: COc1ccc(C(=O)/C=C/c2cn(-c3ccccc3)nc2-c2ccccc2)c(OC)c1
unit_info: %
Activity: 0
//
smiles_str: COc1ccc(C(=O)/C=C/c2cn(-c3ccccc3)nc2-c2ccc(Cl)cc2Cl)c(OC)c1
unit_info: %
Activity: 0
//
smiles_str: COc1ccc(-c2nn(-c3ccccc3)cc2/C=C/C(=O)c2ccc(OC)cc2OC)cc1
unit_info: %
Activity: 0
//
smiles_str: COc1ccc(C(=O)/C=C/c2cn(-c3ccccc3)nc2-c2cccc(Cl)c2)c(OC)c1
unit_info: %
Activity: 0
//
smiles_str: COc1ccc(C(=O)/C=C/c2cn(-c3ccccc3)nc2-c2ccc(Br)cc2)c(OC)c1
unit_info: %
Activity: 0

The reported value for COc1ccc(C(=O)/C=C/c2cn(-c3ccccc3)nc2-c2ccc(F)cc2)c(OC)c1 in terms of Activity is 0

The reported value for COc1ccc(C(=O)/C=C/c2cn(-c3ccccc3)nc2-c2ccc(OC)cc2OC)c(OC)c1 in terms of Activity is 2.5107

The reported value for COc1ccc(C(=O)/C=C/c2cn(-c3ccccc3)nc2-c2ccccc2Cl)c(OC)c1 in terms of Activity is 0

The reported value for COc1ccc(C(=O)/C=C/c2cn(-c3ccccc3)nc2-c2ccc(C)cc2)c(OC)c1 in terms of Activity is 0

The reported value for COc1ccc(C(=O)/C=C/c2cn(-c3ccccc3)nc2-c2ccc(Cl)cc2)c(OC)c1 in terms of Activity is 11.488
